Where do these numbers come from? They come from the RNAGym collection of RNA variant scans (doi:10.1038/s41586-018-0170-7).

B1: tRNA (parent)
chain: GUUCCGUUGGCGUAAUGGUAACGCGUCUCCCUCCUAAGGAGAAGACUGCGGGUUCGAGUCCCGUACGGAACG

- Variants of: B1
- test: yeast fitness, log relative to wild type (ln ratio); higher = fitter; tRNA-Arg(CCU), competitive growth, 37 C, 1 M NaCl
Binary classification by yeast fitness (ln), with -0.3 as an inclusive lower bound for True; all other cases are False.

Illustrative cases are given below, each with its answer.
# inputSequence, categoryLabel
data = [
    ("GCUCCGUUGGCGUAAUGGUAACGCGUCUCCCUCCUAAGGAGACGACUGCGGGUUCGAGUCCCGUACGGGUUG [U2C A43C A69G A70U C71U]", "False"),
    ("AGUCCAUUGGCGUAAUGGUAACGCGUCUCCCUCCUAAGGAGACGAUUGCGGGUUCGAGUCCCGUAUGGGGCG [G1A U2G G6A A43C C46U C66U A69G A70G]", "True"),
    ("GGUCCAUUGGCGUAAUGGUAACGCGUUUCCCUCCUAAGGAGACGACUGCGGGUUCGAGUCCCGUACGGAUUG [U2G G6A C27U A43C A70U C71U]", "True"),
    ("GGUCCUUUGGCGUAAUGGUAACGCGUUUCCCUCCUAAGGAGAAGACUGCGGGUUCGAGUCCCGUAAGGGUUG [U2G G6U C27U C66A A69G A70U C71U]", "False"),
    ("GUUCCAUUGGCGUAAUGGUAACGCGUCUCCCUCCUAAGGAGAAGACUGCGGGUUCGAGUCCCGUAAGGAACG [G6A C66A]", "True"),
    ("GUUCCAUUGGCGUAAUGGUAACGCGUCUCCCUCCUAAGGAGACGAUUGCGGGUUCGAGUCCCGUACGGAUUG [G6A A43C C46U A70U C71U]", "True"),
    ("GUUCCUUUGGCGUAAUGGUAACGCGUUUCCCUCCUAAGGAGACGAUUGCGGGUUCGAGUCCCGUAAGGGUUG [G6U C27U A43C C46U C66A A69G A70U C71U]", "False"),
    ("AUUCCGUUGGCGUAAUGGUAACGCGUCUCCCUCCUAAGGAGAAGACUGCGGGUUCGAGUCCCGUACGGGUCG [G1A A69G A70U]", "True"),
]

Request: Please tell me: is the variant GUUCCAUUGGCGUAAUGGUAACGCGUUUCCCUCCUAAGGAGAAGAUUGCGGGUUCGAGUCCCGUAAGGAUUG [G6A C27U C46U C66A A70U C71U] at or over -0.3 in terms of yeast fitness (ln)?
Response: True

Request: Please tell me: is the variant GCUCCUUUGGCGUAAUGGUAACGCGUUUCCCUCCUAAGGAGAAGACUGCGGGUUCGAGUCCCGUAUGGGUCG [U2C G6U C27U C66U A69G A70U] at or over -0.3 in terms of yeast fitness (ln)?
Response: False

Request: Please tell me: is the variant GUUCCUUUGGCGUAAUGGUAACGCGUCUCCCUCCUAAGGAGACGACUGCGGGUUCGAGUCCCGUAUGGAUUG [G6U A43C C66U A70U C71U] at or over -0.3 in terms of yeast fitness (ln)?
Response: False

Request: Please tell me: is the variant ACUCCGUUGGCGUAAUGGUAACGCGUCUCCCUCCUAAGGAGAAGAUUGCGGGUUCGAGUCCCGUACGGGUCG [G1A U2C C46U A69G A70U] at or over -0.3 in terms of yeast fitness (ln)?
Response: True

Request: Please tell me: is the variant GGUCCGUUGGCGUAAUGGUAACGCGUUUCCCUCCUAAGGAGAAGACUGCGGGUUCGAGUCCCGUAUGGAACG [U2G C27U C66U] at or over -0.3 in terms of yeast fitness (ln)?
Response: True

Request: Please tell me: is the variant GGUCCAUUGGCGUAAUGGUAACGCGUCUCCCUCCUAAGGAGAAGACUGCGGGUUCGAGUCCCGUAAGGAUCG [U2G G6A C66A A70U] at or over -0.3 in terms of yeast fitness (ln)?
Response: True

Request: Please tell me: is the variant GUUCCGUUGGCGUAAUGGUAACGCGUCUCCCUCCUAAGGAGAAGAUUGCGGGUUCGAGUCCCGUAUGGGUCG [C46U C66U A69G A70U] at or over -0.3 in terms of yeast fitness (ln)?
Response: True

Request: Please tell me: is the variant ACUCCGUUGGCGUAAUGGUAACGCGUUUCCCUCCUAAGGAGACGACUGCGGGUUCGAGUCCCGUAUGGGUUG [G1A U2C C27U A43C C66U A69G A70U C71U] at or over -0.3 in terms of yeast fitness (ln)?
Response: False
